# tested_target: T1, Human EphA2 (Ecto) (Human, UniProt P29317 24-537)
# T1 construct: extracellular domain
# T1 sequence (P29317 24-537): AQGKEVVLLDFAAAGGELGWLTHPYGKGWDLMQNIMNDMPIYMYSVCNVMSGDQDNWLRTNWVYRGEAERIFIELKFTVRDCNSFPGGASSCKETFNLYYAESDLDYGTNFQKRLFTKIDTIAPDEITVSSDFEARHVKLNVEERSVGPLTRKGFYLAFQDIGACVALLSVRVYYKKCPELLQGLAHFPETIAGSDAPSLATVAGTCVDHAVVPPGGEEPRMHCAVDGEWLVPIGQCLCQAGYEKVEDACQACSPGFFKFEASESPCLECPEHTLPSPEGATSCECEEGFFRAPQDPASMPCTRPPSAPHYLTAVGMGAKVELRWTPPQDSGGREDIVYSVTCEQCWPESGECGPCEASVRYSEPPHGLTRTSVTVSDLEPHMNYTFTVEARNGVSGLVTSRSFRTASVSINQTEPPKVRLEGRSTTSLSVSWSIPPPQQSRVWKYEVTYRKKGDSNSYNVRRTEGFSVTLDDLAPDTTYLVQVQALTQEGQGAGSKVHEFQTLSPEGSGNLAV
# experiment_summary: FP competition; competitor Compound 12
Numbered stars: 1 amine (or outer) side, 2 acyl side, 3 side chain; on linkers, the order of the positions; unused ones are H or OH. Bridge positions count the residues as written; N and C are the ends. Ends that are not written are not given here. TBMB = c1c(C[*:1])cc(C[*:3])cc1C[*:2]
Please provide measured Ki for the entries that follow.
# number then unit; no other words

Prompt line: Look at this binder and give its reported Ki. ACTTGSIWCALQFEPCA (linker 2-9-16 via TBMB) [Compound 64]
Response line: 410 nM

Prompt line: Give the measured Ki of ACVPQGIWCALQFEPCA (linker 2-9-16 via TBMB) [Compound 63] .
Response line: 92.2 nM

Prompt line: Which Ki is reported for this binder? ACPWGPAWCPVNRPGCAGAAA (linker 2-9-16 via TBMB) [Compound 45]
Response line: 99.2 nM
